Target: T1, monkey EphA4 extracellular domain-SEAP-His protein (monkey)
T1 construct: the fusion as a whole has none; not shown: SEAP-His part
T1 sequence (chain, as listed by the source): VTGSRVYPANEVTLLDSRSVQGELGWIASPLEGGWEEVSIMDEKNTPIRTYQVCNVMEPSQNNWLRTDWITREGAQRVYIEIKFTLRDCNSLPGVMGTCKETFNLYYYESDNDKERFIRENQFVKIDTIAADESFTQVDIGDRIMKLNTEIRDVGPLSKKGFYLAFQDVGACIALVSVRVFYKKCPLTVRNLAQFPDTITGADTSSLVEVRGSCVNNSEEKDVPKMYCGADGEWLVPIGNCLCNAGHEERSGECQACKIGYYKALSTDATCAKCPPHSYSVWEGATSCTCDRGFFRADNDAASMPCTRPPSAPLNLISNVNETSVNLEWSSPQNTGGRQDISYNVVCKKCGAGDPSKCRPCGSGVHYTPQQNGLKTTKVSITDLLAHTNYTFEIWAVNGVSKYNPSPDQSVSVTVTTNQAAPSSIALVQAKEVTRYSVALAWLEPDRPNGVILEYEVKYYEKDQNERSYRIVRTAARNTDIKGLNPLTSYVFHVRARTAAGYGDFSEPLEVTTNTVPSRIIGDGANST
Assay: ELISA
The entries below are paired with their reported absorbance.

{"columns": ["binder", "observed measurement"],
 "data": [
  ["KPEP11_12 (antibody, V domains shown, Rabbit IgG; also called anti-human EphA4 rabbit monoclonal antibody KPEP11_12) VH: QSLEESGGRLVTPGTPLTLTCTVSGFSLSSYHMSWVRQAPGKGLEWIGIIYRSGNTYYANWAKGRFTISKTSTTVDLKITSPTTEDTATYFCARESSTFYGMDLWGPGTLVTVSS VL: YVMMTQTPSSVSAAVGGTVTINCQASQSVYGNNELAWYQQKPGQRPKLLIYRASTLASGVPSRFKGSGSGTEFTLTISDLECADAATYYCLGYKSDDYTFGGGTKVEIKG", 1.19]
]}

Kindly consider the entry below.
Tell me the measured absorbance of KPEP11_04 (antibody, V domains shown, Rabbit IgG/kappa; Used HRP-labeled as detection antibody in the sandwich ELISAs; also called anti-human EphA4 rabbit monoclonal antibody KPEP11_04; HRP-labeled KPEP11_04) VH: QEQLKESGGRLVTPGGSLTLTCTVSGIDLSSYAMSWVRQAPEKGLEWIGFINMYGTYYASWAKGRFTISRTSTTVDLKVTSLTTEDTATYFCVRGGRSPDYDIVSGDIWGPGTLVTVSS VL: YVMMTQTPSSVSEPVGGTVTIKCQASQNIYNSLAWYQQKPGQRPKLLIADASELASGVPQRFSGSGSGTQFTLTISDLECADAATYYCQSSSAGDSYVGGFGGGTEVVVKG , please. 1.21
